Study the reported pIC50 values for Epidermal growth factor receptor (Homo sapiens, UniProt P00533) given below; they originate from different publications.
pIC50: −log10 of the molar value.
quantity-kind: pIC50

INSERT INTO assay_data (compound, quantity_kind, assay_result) VALUES
  ('COc1cc(N2CCC(N3CCN(CC4CCN(c5ccc6c(c5)CN(C5CCC(=O)NC5=O)C6=O)CC4)CC3)CC2)ccc1Nc1ncc(Cl)c(Nc2ccccc2P(C)(C)=O)n1 (stereo not drawn)', 'pIC50', 7.16),
  ('CC(=O)OC[C@H]1O[C@@H](n2cc(CSc3nc4ccccc4c(=O)n3-c3ccccc3)nn2)[C@H](OC(C)=O)[C@@H](OC(C)=O)[C@H]1OC(C)=O', 'pIC50', 4.73),
  ('COc1cc2oc(-c3ccccc3)c(-c3c[nH]c4ccc(Br)cc34)c2cc1OC', 'pIC50', 6.36),
  ('COc1ccc(C(=O)N/C(=C\c2ccc([N+](=O)[O-])cc2)C(=O)NNC(=O)c2cc(-c3ccc(Br)cc3)nc3ccccc23)cc1', 'pIC50', 6.66);

[I] COc1ccc(C(=O)N/C(=C\c2ccc(C)cc2)C(=O)NNC(=O)c2cc(-c3ccc(Br)cc3)nc3ccccc23)cc1
[II] CC(=O)O[C@@H]1[C@@H](OC(C)=O)[C@H](OC(C)=O)CO[C@H]1n1cc(CSc2nc3ccccc3c(=O)n2C)nn1
Exercise: Quick one: lower pIC50, I or II ? Indicate which entry you chose by stating its label.
Key: II
